system-under-test: h-Sortilin (Homo sapiens (Human), UniProt Q99523)
Sequence (Q99523 78-831): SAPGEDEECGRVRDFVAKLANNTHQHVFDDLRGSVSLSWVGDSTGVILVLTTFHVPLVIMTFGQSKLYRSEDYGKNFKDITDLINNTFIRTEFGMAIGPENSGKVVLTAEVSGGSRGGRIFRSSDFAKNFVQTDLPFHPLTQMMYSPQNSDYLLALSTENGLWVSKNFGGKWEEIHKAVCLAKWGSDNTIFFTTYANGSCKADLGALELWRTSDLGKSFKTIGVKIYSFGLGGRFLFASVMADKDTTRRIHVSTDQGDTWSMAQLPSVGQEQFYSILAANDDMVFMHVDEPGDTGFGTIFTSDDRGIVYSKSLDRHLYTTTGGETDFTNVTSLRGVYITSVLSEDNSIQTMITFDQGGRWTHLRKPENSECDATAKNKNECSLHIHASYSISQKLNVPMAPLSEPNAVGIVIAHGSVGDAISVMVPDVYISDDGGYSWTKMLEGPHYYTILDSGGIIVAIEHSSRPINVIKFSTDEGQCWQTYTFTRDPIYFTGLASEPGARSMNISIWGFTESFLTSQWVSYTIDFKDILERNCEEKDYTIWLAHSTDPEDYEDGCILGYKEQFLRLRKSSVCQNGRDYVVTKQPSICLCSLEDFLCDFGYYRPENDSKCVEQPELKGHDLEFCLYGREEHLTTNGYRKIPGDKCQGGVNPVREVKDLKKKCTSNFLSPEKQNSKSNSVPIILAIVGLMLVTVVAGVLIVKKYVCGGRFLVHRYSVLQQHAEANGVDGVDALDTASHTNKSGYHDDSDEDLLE
test-details: Neurotensin (NTS) scintillation proximity assay (SPA): displacement of [3H]-neurotensin binding
run-parameters: 150 nM 6his-Sortilin, 5 nM [3H]-Neurotensin; average of at least 2 determinations
measured-endpoint: IC50 (nM)

Below, 3 compounds whose answers are already recorded.
CC(C)(C)CC[C@H](NCc1cccc2cccnc12)C(=O)O    1950
CC(C)(C)CC[C@H](NCc1ccccc1OC(F)(F)F)C(=O)O    975
CC(C)(C)CC[C@H](NCc1cccc(CO)c1)C(=O)O    1380

(I) COc1cccc(CN[C@@H](CCC(C)(C)C)C(=O)O)c1C
(II) COc1cc(Cl)cc(CN[C@@H](CCC(C)(C)C)C(=O)O)c1
Q: Which gives the smaller IC50 number: I or II ? In your reply, give the label of the chosen option.
Result: II
(II: 580 nM, I: 980 nM)

(1) COc1ccc(OC)c(CN[C@@H](CCC(C)(C)C)C(=O)O)c1
(2) Cc1cc2cccc(CN[C@@H](CCC(C)(C)C)C(=O)O)c2cn1
Q: Between 1 and 2 , whose measured IC50 reads higher? In your reply, give the label of the chosen option.
Result: 1

---

system-under-test: h-Sortilin (Homo sapiens (Human))
test-details: Neurotensin (NTS) scintillation proximity assay (SPA): displacement of [3H]-neurotensin binding
run-parameters: 150 nM 6his-Sortilin, 5 nM [3H]-Neurotensin; average of at least 2 determinations
pIC50: −log10 of the molar value.
measured-endpoint: pIC50

Below, 2 compounds whose answers are already recorded.
CC(C)(C)CC[C@H](NCc1cccc(-n2ccnc2)c1)C(=O)O    5.89
COc1cncc(CN[C@@H](CCC(C)(C)C)C(=O)O)c1 [Example 144]    6.37

(P) CC(C)(C)CC[C@H](NCc1ccnc(Cl)c1F)C(=O)O
(Q) Cc1cc(=O)oc2c(CN[C@@H](CCC(C)(C)C)C(=O)O)c(O)ccc12
(R) CC(C)(C)CC[C@H](NC1=Nc2ccccc2Oc2ccccc21)C(=O)O
Q: Give the ascending ranking of the items by reported pIC50. Form entry: labels listed in requested order.
Result: R, P, Q

---

system-under-test: h-Sortilin (Homo sapiens (Human), UniProt Q99523)
test-details: Neurotensin (NTS) scintillation proximity assay (SPA): displacement of [3H]-neurotensin binding
run-parameters: 150 nM 6his-Sortilin, 5 nM [3H]-Neurotensin; average of at least 2 determinations
pIC50: −log10 of the molar value.
measured-endpoint: pIC50

COc1cc(CN[C@@H](CCC(C)(C)C)C(=O)O)ccc1F    6.02
COc1ccc([C@H](N[C@@H](CCC(C)(C)C)C(=O)O)C(F)(F)F)cc1OC    6.66
CC(C)(C)CC[C@H](NCc1cc(Cl)cc(Cl)c1)C(=O)O    6.08
CC(C)(C)CC[C@H](NCc1ccc2ncsc2c1)C(=O)O    6.23

(A) CC(C)(C)CC[C@H](NCc1cnc2ccccc2c1)C(=O)O
(B) CC(C)(C)CC[C@H](NCc1cccc2c1OCO2)C(=O)O
(C) COc1cccc([C@@H](N[C@@H](CCC(C)(C)C)C(=O)O)C(F)(F)F)c1
(D) Cn1ccc2ccc(CN[C@@H](CCC(C)(C)C)C(=O)O)cc21
Q: Returns the items ordered by pIC50, from maximum to minimum. Form entry: labels listed in requested order.
Result: C, A, B, D
